Target or system: CD73 (Homo sapiens (Human))
Sequence (P21589 27-574): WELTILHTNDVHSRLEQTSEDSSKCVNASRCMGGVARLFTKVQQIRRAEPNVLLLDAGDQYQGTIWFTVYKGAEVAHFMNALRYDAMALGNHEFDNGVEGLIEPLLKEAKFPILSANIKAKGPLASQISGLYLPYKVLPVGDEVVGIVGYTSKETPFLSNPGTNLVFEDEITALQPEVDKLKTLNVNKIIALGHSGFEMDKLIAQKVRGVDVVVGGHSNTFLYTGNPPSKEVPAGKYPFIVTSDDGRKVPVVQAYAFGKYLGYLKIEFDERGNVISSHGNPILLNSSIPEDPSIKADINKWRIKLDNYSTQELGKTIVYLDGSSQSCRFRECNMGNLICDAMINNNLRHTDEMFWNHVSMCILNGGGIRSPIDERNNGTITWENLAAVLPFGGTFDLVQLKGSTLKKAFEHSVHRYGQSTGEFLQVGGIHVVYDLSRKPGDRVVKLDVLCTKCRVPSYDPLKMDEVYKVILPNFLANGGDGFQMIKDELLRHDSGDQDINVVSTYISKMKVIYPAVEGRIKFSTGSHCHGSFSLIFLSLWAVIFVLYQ
Assay comment: MDA-MB-231 Cell Based CD73 Activity Assay (DMEM)
Condition description: MDA-MB-231-GFP cells, DMEM medium with 10% human plasma, 200 uM AMP
# pEC50 listing for each entry below
FYI, pEC50 means -log10 of a concentration in mol per litre.

O=C1N(CC(F)(F)C(F)(F)F)c2cc([C@H]3C[C@@H]3c3cc(-c4c[nH]c(=O)[nH]c4=O)nn4ccnc34)ccc2C12CC2 (racemic) [Example 737]: 9.74
CC1(C)CN(c2cc(-c3c[nH]c(=O)[nH]c3=O)nc3nccn23)CC1(F)F [Example 421]: 7.19
O=c1[nH]cc(-c2cc([C@H]3C[C@@H]3c3ccc(C(F)(F)F)nc3)c3nccn3n2)c(=O)[nH]1 (racemic) [Example 152]: 7.76
CN(C)C(=O)COC1CN(c2cc(-c3c[nH]c(=O)[nH]c3=O)nn3ccnc23)CC1(F)F (stereo not shown) [Example 204]: 8.03

Which pEC50 reading was recorded for the molecule O=c1[nH]cc(-c2cc([C@H]3C[C@@H]3c3ccc4ccn(CC(F)(F)F)c4n3)c3nccn3n2)c(=O)[nH]1 [Example 704] ?
9.44

Which pEC50 reading was recorded for the molecule CC1(C)CC(=O)N(c2cc(-c3c[nH]c(=O)[nH]c3=O)nn3ccnc23)C1 [Example 513] ?
6.03

Which pEC50 reading was recorded for the molecule CC1CN(c2cc(-c3c[nH]c(=O)[nH]c3=O)nc3ccnn23)CC1(F)F (stereo not shown) [Example 221] ?
7.13

Ref: patent US20240043427A1
